- System: MYB mRNA
- procedure-details: Splicing RT-qPCR assay, MYB canonical (CJ) and alternative (AJ) junction mRNA
- Type: cell-based, human
- assay-context: Homo sapiens, 24 h, A673 or K562 cells, 24 hours compound treatment, RT-qPCR; read-out: MYB AJ (AC50, increase in alternative junction mRNA)
Structures can show the parent of a compound that is named as a salt.
measured-attribute: AC50

Entry under review: Cc1cn2cc(NC(=O)c3ccc(N4CCN5CCCC5C4)c4cc(C)oc34)cc(F)c2n1 (stereo not shown) [Compound 199] . Reported AC50?
0.1 to 1 µM

Quick check: AC50 of Cc1cn2cc(NC(=O)c3ccc(N4CCNCC4)c4cn(C)nc34)cc(C)c2n1 [Compound 238] ?
0.1 to 1 µM

Can you share its AC50? I mean this compound: Cn1cc2c(N3CCNCC3)ccc(C(=O)Nc3ccc4c(c3)oc(=O)n4C)c2n1 [Compound 499]
> 10 µM

Item CCn1cc2c(N3CCC(N(C)C)CC3)ccc(C(=O)Nc3cc(F)c4nc(C)cn4c3)c2n1 [Compound 395] has what recorded AC50?
< 0.1 µM

Returns the measured AC50 for the input compound. Input: Cc1c(O)c(NC(=O)c2ccc(N3CCNCC3)c3cn(C)nc23)cc2cn(C)nc12 [Compound 325, hydrochloride]
1 to 10 µM

Fill in: AC50 of Cc1cn2cc(NC(=O)c3ccc(N4CCC5(CC4)CNC5)c4cn(C)nc34)cc(F)c2n1 [Compound 348] is ___
< 0.1 µM

Fill blank: measured AC50 of the compound Cc1cn2cc(NC(=O)c3ccc(N4CCNCC4)c4cn(CC(F)(F)F)nc34)cc(F)c2n1 [Compound 316] is ____.
0.1 to 1 µM

I am curious: what AC50 value has been reported for Cc1cn2cc(NC(=O)c3ccc(N4CCC(NC(C)(C)C)CC4)c4cc(C)oc34)cc(F)c2n1 [Compound 197] ?
1 to 10 µM

So what does the record say about AC50 for CCN1CCC(c2ccc(C(=O)Nc3cc(F)c4nc(C)cn4c3)c3oc(C)cc23)CC1 [Compound 257] ?
0.1 to 1 µM

Reported AC50 for CCn1cc2c(N3CCNCC3)ccc(C(=O)Nc3cc(F)c4ncccc4c3)c2n1 [Compound 575] : what is it?
> 10 µM

Which AC50 is reported for this compound? Cc1cn2cc(NC(=O)c3ccc(N4CC5(CNC5)C4)c4cn(C)nc34)cc(F)c2n1 [Compound 242]
0.1 to 1 µM

Dear colleague, I am looking for the recorded AC50 of the following compound: CNc1cc(N2CCNCC2)c2cn(C)nc2c1C(=O)Nc1cc(F)c2nc(C)cn2c1 [Compound 362]
1 to 10 µM

# AC50 lookup, item CCn1cc2c(N3CC[C@@H](N(C)C)C3)cc(Cl)c(C(=O)Nc3cc(F)c4nc(C)cn4c3)c2n1 [Compound 619]
0.1 to 1 µM

Could you share which AC50 value was measured for CCn1cc2c(N3CCN(C)CC3)ccc(C(=O)Nc3cc(F)c4nc(C)cn4c3)c2n1 [Compound 378] ?
0.1 to 1 µM

Fill blank: measured AC50 of the compound CCN(CC)C1CCN(c2ccc(C(=O)Nc3cc(F)c4nc(C)cn4c3)c3nn(CCOC)cc23)C1 (stereo not shown) [Compound 330] is ____.
0.1 to 1 µM

Quick one: AC50 of CC(=O)NC1CCN(c2ccc(C(=O)Nc3cc(F)c4nc(C)cn4c3)c3nn(C)cc23)CC1 [Compound 328] ?
> 10 µM
